# Test system: K562
# METHOD NOTES: Cytotoxicity against human K562 cells after 48 hrs by MTT assay
# Format: functional, cell-based
# MEASUREMENT CONTEXT: K562, 48 h
pIC50: −log10 of the molar value.

MOLECULE | pIC50
CO[C@@H]1C=C[C@@]23c4cc5c(cc4CO[C@]2(O)CN(C)[C@H]3C1)OCO5 | < 5.00
CC(C)CCn1c(=O)c2cc3c(cc2c2ccccc21)OCO3 | < 5.00
O[C@H]1[C@H]2c3cc4c(cc3CN3CCC(=C[C@@H]1O)[C@H]23)OCO4 | 5.64
CCOC(=O)CCCn1c(=O)c2cc3c(cc2c2ccccc21)OCO3 | < 5.00
CO[C@@H]1C=C[C@@]23c4cc5c(cc4C(O)[N+](C)(C[C@@H]2O)[C@H]3C1)OCO5.[Cl-] (mixture of isomers) | 6.00
C/C=C/C=C/C(=O)N1C[C@H](C)NC[C@H]1C | < 5.00
COc1cc2c(c(OC)c1OC)[C@@H](OC)O[C@@H]1CC=C3CCN(C)[C@H]3[C@H]21 | < 5.00
CCOC(=O)CCn1c(=O)c2cc3c(cc2c2ccccc21)OCO3 | < 5.00
O=c1c2cc3c(cc2c2ccccc2n1CCc1ccccc1)OCO3 | 6.15
CO[C@@H]1C=C[C@@]23c4cc5c(cc4C(=O)O[C@H]2CN(C)[C@H]3C1)OCO5 | < 5.00
